- protocol-text: log P (partition coefficient between organic and aqueous phase)
- Type: physicochemical
reported-metric: logP
Could you keep your reply to the number by itself?

## Input Field request: logP | item: Nc1nc(NCc2ccc3c(c2)OCO3)cc(-c2cccc(O)c2)n1
## Output 2.47
